- System: SK-MEL-2 melanoma
- METHOD NOTES: NCI tumour cell line growth inhibition, 48 h
RECORDED ENDPOINT: TGI

In [3]: df
Out[3]:
                                   compound  readout_value
0  CCCN1C(=O)NC(=O)C(CC)(N2C(=O)c3c(F)c(F)c(F)c(F)c3C2=O)C1=O (centres undefined)        8.32 µM
1  Nc1n(CC(=O)c2ccccc2)nc2sc(-c3ccccc3)n[n+]12       > 100 µM
2  Cc1ccc(S(=O)(=O)SC/C=C\CSS(=O)(=O)c2ccc(C)cc2)cc1      > 92.6 µM
3  O=C(NCC1CC1)c1ccc(-c2cccc(C(=O)NC3CC3)c2)cc1        > 25 µM

* * *

Reported TGI values for the following compounds.
- Test system: HOP-92 NSCLC
- METHOD NOTES: NCI tumour cell line growth inhibition, 48 h
RECORDED ENDPOINT: TGI

>>> df
                                   compound  recorded_endpoint  readout_value
0  CC(CO)Nc1cc(-c2[nH]c3cccnc3c2-c2ccc(F)cc2)ccn1 (stereo not given)                TGI        > 25 µM
1  CC(=O)c1c(O)c(C)c(O)c(Cc2c(O)c3c(c(C(=O)/C=C/c4ccccc4)c2O)OC(C)(C)C=C3)c1O                TGI        6.08 µM
2  N#CCCN(CCC#N)c1ccc(/C=C2\N=C(c3ccccc3)N(c3ccc(F)cc3)C2=O)cc1                TGI       > 100 µM
3  CCCCCOc1ccc(C=Nc2ccc(CCc3ccc(N=Cc4ccc(OCCCCC)cc4)cc3)cc2)cc1                TGI       > 100 µM
4  O=S1(=O)c2ccccc2Oc2ccc(C(/C=N/O)=N/O)cc21                TGI       > 100 µM
5        C1CSCCCSCCCSCCCSCCCSCCCSCCCSCCCSC1                TGI       > 100 µM
6                         N#CC(N)=Nc1ccccc1                TGI       > 100 µM
7                  Cn1ccnc1CCc1c(Cl)cccc1Cl                TGI       > 100 µM
8  CC1=C2C(=C[C@@](C)(CO)[C@@H]2OC(=O)N(C)CCN(C)C(=O)OC(C)(C)C)C(=O)[C@](C)(O)C12CC2                TGI        25.1 µM
9  COC(=O)/C(=N\NC(C)(C)C)C(C(=O)OC)C(=O)C(=O)Nc1cc(Cl)ccc1Cl (stereo not given)                TGI       > 100 µM

* * *

- Test system: HOP-92 NSCLC
- METHOD NOTES: NCI tumour cell line growth inhibition, 48 h
Reported GI50 values for the following compounds.
RECORDED ENDPOINT: GI50

In [3]: df
Out[3]:
                                   compound  assayed_target  readout_value
0  COc1cc(/C=C/C(=O)/C=C/c2cc(OC)c3c(c2)OCO3)cc2c1OCO2    HOP-92 NSCLC        58.5 µM
1  O=C(Oc1cccnc1)c1cccnc1Nc1ccnc(C(F)(F)F)c1    HOP-92 NSCLC       > 100 µM
2  CCSC1=NC2C(N(CC)C(=O)N2CC)N1/N=C/C=C/c1ccccc1[N+](=O)[O-] (centres undefined)    HOP-92 NSCLC        1.17 µM
3  O=C(NCC1CC1)c1ccc(-c2cccc(C(=O)NC3CC3)c2)cc1    HOP-92 NSCLC        6.66 µM
4  c1ccc(-c2nc(-c3ccccn3)nc(-c3ccccn3)n2)nc1    HOP-92 NSCLC        8.99 µM
5  Clc1ccc(-c2cn3ccnc3c(-c3ccc(Cl)cc3)n2)cc1    HOP-92 NSCLC        15.1 µM
6  CC[O-].CC[O-].O=C([CH-]C(=O)c1ccccc1)CCCCCCCCC(=O)[CH-]C(=O)c1ccccc1.[Ti+4]    HOP-92 NSCLC        67.5 µM
7  CO/N=C(\COc1ccc2c(c1)[nH]c1ccccc12)c1ccc(OC)cc1    HOP-92 NSCLC        11.9 µM
8   Cc1cc([NH-])c([NH-])cc1C.[Cl][Pt+2][Cl]    HOP-92 NSCLC        16.2 µM
